Assay: Zinc precipitation of GLP-1 compounds (A280 of supernatant)
Assay type: physicochemical
Settings: Zn/GLP-1 molar ratio 3, 100 μM GLP-1 compound, HEPES pH 7.4, 22° C., 18 hours
Protocol: Individual GLP-1 compounds were prepared as described in Examples 1 or 2. 3 mg of an individual lyophilized GLP molecule was dissolved in 3 ml 0.1 M HEPES buffer pH 10.5. The pH of the resulting solution was then adjusted to between 10.0 and 10.5 with 0.2 N NaOH. The solution was stirred at ambient temperature for 30 minutes and the solution was then adjusted to a pH of 7.4 with 0.2 N HCl. […]
Where no end group is shown, it is not given here.
property_name: A280
Provide a numeric answer; units are not to be included.

Ask: Suppose we examine the substance Val^8-Lys^22-GLP-1(7-37)OH (HVEGTFTSDVSSYLEKQAAKEFIAWLVKGRG) ; what A280 value has been reported?
Reply: 0.1475

Ask: Suppose we examine the substance Gln^22-GLP-1(7-37)OH (HAEGTFTSDVSSYLEQQAAKEFIAWLVKGRG) ; what A280 value has been reported?
Reply: 0.095

Ask: Value lookup for A280; key = Val^8-Ser^22-GLP-1(7-37)OH (HVEGTFTSDVSSYLESQAAKEFIAWLVKGRG)
Reply: 0.101

Ask: Quick check: A280 of Gly^8-GLP-1(7-37)OH (HGEGTFTSDVSSYLEGQAAKEFIAWLVKGRG-OH; UniProt P01275 98-128, looked up, variant A8G) [reference compound] ?
Reply: 0.085

====

Tested on: GLP-1 receptor
Experiment: GLP-1 receptor activation, in vitro assays
Type: cell-based
Details: activity relative to the activity of GLP-1(7-37)OH
Where no end group is shown, it is not given here.
Exercise: for every item that follows, state its recorded GLP-1 Receptor Activation.

Ask: Dear colleague, I am looking for the recorded GLP-1 Receptor Activation of the following substance: Val^8-Tyr^16-GLP-1(7-37)OH (HVEGTFTSDYSSYLEGQAAKEFIAWLVKGRG)
Reply: 1.175

Ask: Request the reported GLP-1 Receptor Activation associated with Val^8-Lys^24-GLP-1(7-37)OH (HVEGTFTSDVSSYLEGQKAKEFIAWLVKGRG)
Reply: 0.02

Ask: Dear colleague, I am looking for the recorded GLP-1 Receptor Activation of the following substance: Val^8-Gly^36-Pro^37-GLP-1(7-37)NH2 (HVEGTFTSDVSSYLEGQAAKEFIAWLVKGGP-NH2)
Reply: 0.53

Ask: # query: GLP-1 Receptor Activation of entry Val^8-Ala^33-GLP-1(7-37)OH (HVEGTFTSDVSSYLEGQAAKEFIAWLAKGRG)
Reply: 0.1

Ask: Param item = Val^8-Lys^22-Glu^30-GLP-1(7-37)OH (HVEGTFTSDVSSYLEKQAAKEFIEWLVKGRG) ; retrieve measured GLP-1 Receptor Activation.
Reply: 0.37

Ask: Look up GLP-1 Receptor Activation: Val^8-Glu^23-GLP-1(7-36)OH (HVEGTFTSDVSSYLEGEAAKEFIAWLVKGR)
Reply: 0.28

Ask: Entry Val^8-Glu^34-GLP-1(7-37)OH (HVEGTFTSDVSSYLEGQAAKEFIAWLVEGRG) has what GLP-1 Receptor Activation?
Reply: 0.17

Ask: # query: GLP-1 Receptor Activation of entry Val^8-Gly^33-GLP-1(7-37)OH (HVEGTFTSDVSSYLEGQAAKEFIAWLGKGRG)
Reply: 0.01

Ask: # input substance: Val^8-Glu^22-GLP-1(7-37)OH (HVEGTFTSDVSSYLEEQAAKEFIAWLVKGRG) ; wanted: its GLP-1 Receptor Activation
Reply: 1.29

====

Kindly supply the reported Aggregation Time values for the records listed here.
Assay: GLP Aggregation Assay (time to onset of aggregation, turbidity at 350 nm)
Assay type: physicochemical
Conditions: 0.3 mg/mL in 10 mM citrate, 10 mM phosphate, 150 mM NaCl, pH 7.4 to 7.5, 37° C., stirred, turbidity at 350 nm
Quick reminder: number only, in h, skip the unit.

Ask: Look up Aggregation Time for this substance: Val^8-Lys^20-GLP-1(7-37)OH (HVEGTFTSDVSSYKEGQAAKEFIAWLVKGRG)
Reply: 5

Ask: Given the entry Val^8-Ala^16-GLP-1(7-37)OH (HVEGTFTSDASSYLEGQAAKEFIAWLVKGRG) , report its measured Aggregation Time.
Reply: 16

Ask: Would you kindly share the measured Aggregation Time for Val^8-Pro^35-GLP-1(7-37)OH (HVEGTFTSDVSSYLEGQAAKEFIAWLVKPRG) ?
Reply: 14

Ask: Recorded Aggregation Time for Val^8-Glu^35-GLP-1(7-37)OH (HVEGTFTSDVSSYLEGQAAKEFIAWLVKERG) , please?
Reply: 63

Ask: May I ask what Aggregation Time has been recorded for Val^8-Lys^11-GLP-1(7-37)OH (HVEGKFTSDVSSYLEGQAAKEFIAWLVKGRG) ?
Reply: 13

====

Test: Zinc precipitation of GLP-1 compounds (A280 of supernatant)
Assay type: physicochemical
Settings: Zn/GLP-1 molar ratio 1, 100 μM GLP-1 compound, HEPES pH 7.4, 22° C., 18 hours
property_name: A280
Form field (numeric): enter value without unit.

Ask: Which A280 reading was recorded for the substance Val^8-Ala^22-GLP-1(7-37)OH (HVEGTFTSDVSSYLEAQAAKEFIAWLVKGRG) ?
Reply: 0.110

Ask: I would be grateful if you could share the reported A280 for Val^8-Asp^22-GLP-1(7-37)OH (HVEGTFTSDVSSYLEDQAAKEFIAWLVKGRG) .
Reply: 0.291

Ask: What value of A280 has been recorded for this entry: Val^8-Lys^22-GLP-1(7-37)OH (HVEGTFTSDVSSYLEKQAAKEFIAWLVKGRG)
Reply: 0.1225

Ask: # get_value(readout='A280', item= Val^8-Glu^22-GLP-1(7-37)OH (HVEGTFTSDVSSYLEEQAAKEFIAWLVKGRG) )
Reply: 0.26

====

Experiment: Zinc precipitation of GLP-1 compounds (A280 of supernatant)
Format: physicochemical
Conditions: Zn/GLP-1 molar ratio 5, 100 μM GLP-1 compound, HEPES pH 7.4, 22° C., 18 hours
Where no end group is shown, it is not given here.
property_name: A280
Answer with a bare number; do not write a unit.

Ask: Value lookup for A280; key = Gln^22-GLP-1(7-37)OH (HAEGTFTSDVSSYLEQQAAKEFIAWLVKGRG)
Reply: 0.097

Ask: Requested field: A280. Item: Val^8-Ser^22-GLP-1(7-37)OH (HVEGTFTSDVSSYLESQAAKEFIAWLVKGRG)
Reply: 0.0615

Ask: Can you share its A280? I mean this substance: Val^8-Ala^22-GLP-1(7-37)OH (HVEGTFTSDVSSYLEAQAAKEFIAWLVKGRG)
Reply: 0.119

Ask: Reported A280, substance Gly^8-GLP-1(7-37)OH (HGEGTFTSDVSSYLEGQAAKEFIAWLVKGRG-OH; UniProt P01275 98-128, looked up, variant A8G) [reference compound] : ____
Reply: 0.078

Ask: What value of A280 has been recorded for this entry: Val^8-Lys^22-GLP-1(7-37)OH (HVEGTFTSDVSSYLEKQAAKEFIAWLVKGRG)
Reply: 0.142

Ask: Which A280 is reported for this substance? Val^8-Glu^22-GLP-1(7-37)OH (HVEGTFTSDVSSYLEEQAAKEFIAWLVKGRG)
Reply: 0.035

Ask: Which A280 value is on record for Val^8-Asp^22-GLP-1(7-37)OH (HVEGTFTSDVSSYLEDQAAKEFIAWLVKGRG) ?
Reply: 0.1675

Ask: Bench note: what A280 did Val^8-Pro^22-GLP-1(7-37)OH (HVEGTFTSDVSSYLEPQAAKEFIAWLVKGRG) show?
Reply: 0.171

The reported numbers originate from patent US20060263849A1.
